Below, each of the compounds is paired with its reported Ki value.
- system_tested: D(2) dopamine receptor (Rattus norvegicus, UniProt P61169)
- Sequence (P61169 whole entry): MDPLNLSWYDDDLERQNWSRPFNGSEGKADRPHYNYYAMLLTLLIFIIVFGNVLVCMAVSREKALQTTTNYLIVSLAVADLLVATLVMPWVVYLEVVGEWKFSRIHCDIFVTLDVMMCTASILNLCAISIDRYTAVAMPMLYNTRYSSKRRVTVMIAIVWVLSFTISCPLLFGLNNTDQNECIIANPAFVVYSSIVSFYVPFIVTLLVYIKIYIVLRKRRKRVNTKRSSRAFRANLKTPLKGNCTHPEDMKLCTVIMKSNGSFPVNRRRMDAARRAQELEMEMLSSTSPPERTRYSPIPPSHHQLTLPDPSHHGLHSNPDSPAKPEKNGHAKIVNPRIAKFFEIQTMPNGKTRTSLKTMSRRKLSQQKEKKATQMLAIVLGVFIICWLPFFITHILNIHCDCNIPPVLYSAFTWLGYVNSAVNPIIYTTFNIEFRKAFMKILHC
- assay_name: Binding affinity of compound against Dopamine receptor D2 binding site using radioligand [3H]spiperone
quantity_kind: Ki (nM)

In [3]: df
Out[3]:
                                   compound  quantity_kind  unit_string  reported
0  COc1ccc(OC)c2c1C[C@@H]1c3c(cccc3-2)CCN1C             Ki           nM       210
1  CCCN1CCc2cccc3c2[C@H]1Cc1c(OC)ccc(OC)c1-3             Ki           nM       770
2  CCCN(CCC)C1CCc2cccc(O)c2C1 (stereo not drawn) [8-OH-DPAT]             Ki           nM      3500

These measurements were taken from ChEMBL document CHEMBL1124569.
